These measurements were taken from ChEMBL document CHEMBL1139384.

The reader will find pIC50 measurements below, all made with Cell division cycle 7-related protein kinase (Homo sapiens, UniProt O00311).
Sequence (O00311 whole entry): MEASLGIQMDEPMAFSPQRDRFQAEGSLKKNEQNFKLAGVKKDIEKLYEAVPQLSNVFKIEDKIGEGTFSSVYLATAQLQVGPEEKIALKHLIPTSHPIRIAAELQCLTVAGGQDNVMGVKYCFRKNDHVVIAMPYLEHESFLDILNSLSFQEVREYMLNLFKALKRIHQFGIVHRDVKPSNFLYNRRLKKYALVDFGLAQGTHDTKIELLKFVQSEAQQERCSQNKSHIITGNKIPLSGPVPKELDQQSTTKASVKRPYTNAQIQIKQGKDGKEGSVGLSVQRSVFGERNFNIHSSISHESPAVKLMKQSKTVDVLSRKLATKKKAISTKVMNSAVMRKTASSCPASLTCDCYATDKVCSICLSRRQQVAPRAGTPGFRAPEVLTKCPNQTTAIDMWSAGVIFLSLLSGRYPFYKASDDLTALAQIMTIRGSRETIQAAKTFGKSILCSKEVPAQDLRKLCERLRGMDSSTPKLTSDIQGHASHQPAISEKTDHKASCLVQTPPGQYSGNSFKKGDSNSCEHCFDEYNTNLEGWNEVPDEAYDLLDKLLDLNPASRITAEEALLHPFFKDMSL
Give bare numbers, as −log10 of the molar value.

Would you please look over these solved cases?
compound="Nc1nccc(-c2cc3c([nH]2)C(CCOCc2ccccc2)CNC3=O)n1 (configuration not stated)" value=8.15
compound="CCC1CNC(=O)c2cc(-c3ccnc(N)n3)[nH]c21 (stereo in doubt; 86-2)" value=8.30
compound="Nc1nccc(-c2cc3c([nH]2)C(CCCOCc2ccccc2)CNC3=O)n1 (configuration not stated)" value=7.62

Give pIC50 for each listed item.
1. CCC1(CC)CNC(=O)c2cc(-c3ccncc3)[nH]c21
2. CCC1CNC(=O)c2cc(-c3ccnc(N)n3)[nH]c21 (stereo in doubt; 86)
3. Nc1nccc(-c2cc3c([nH]2)C(CCF)CNC3=O)n1 (configuration not stated)

8.22
8.30
8.52

Fill in pIC50 for each of the 4 compounds listed.
1. CC(C)C1CNC(=O)c2cc(-c3ccnc(N)n3)[nH]c21 (stereo in doubt; 87)
2. Nc1nccc(-c2cc3c([nH]2)C(CCC(F)(F)F)CNC3=O)n1 (stereo in doubt; 93-1)
3. Nc1nccc(-c2cc3c([nH]2)C(c2ccccc2)CNC3=O)n1 (configuration not stated)
4. O=C1NCC(CCF)c2[nH]c(-c3ccncc3)cc21 (configuration not stated)

1: 8.40; 2: 7.92; 3: 7.72; 4: 8.70

* * *

Biological target: Insulin receptor (Homo sapiens)
Sequence (P06213 28-758 limits assumed): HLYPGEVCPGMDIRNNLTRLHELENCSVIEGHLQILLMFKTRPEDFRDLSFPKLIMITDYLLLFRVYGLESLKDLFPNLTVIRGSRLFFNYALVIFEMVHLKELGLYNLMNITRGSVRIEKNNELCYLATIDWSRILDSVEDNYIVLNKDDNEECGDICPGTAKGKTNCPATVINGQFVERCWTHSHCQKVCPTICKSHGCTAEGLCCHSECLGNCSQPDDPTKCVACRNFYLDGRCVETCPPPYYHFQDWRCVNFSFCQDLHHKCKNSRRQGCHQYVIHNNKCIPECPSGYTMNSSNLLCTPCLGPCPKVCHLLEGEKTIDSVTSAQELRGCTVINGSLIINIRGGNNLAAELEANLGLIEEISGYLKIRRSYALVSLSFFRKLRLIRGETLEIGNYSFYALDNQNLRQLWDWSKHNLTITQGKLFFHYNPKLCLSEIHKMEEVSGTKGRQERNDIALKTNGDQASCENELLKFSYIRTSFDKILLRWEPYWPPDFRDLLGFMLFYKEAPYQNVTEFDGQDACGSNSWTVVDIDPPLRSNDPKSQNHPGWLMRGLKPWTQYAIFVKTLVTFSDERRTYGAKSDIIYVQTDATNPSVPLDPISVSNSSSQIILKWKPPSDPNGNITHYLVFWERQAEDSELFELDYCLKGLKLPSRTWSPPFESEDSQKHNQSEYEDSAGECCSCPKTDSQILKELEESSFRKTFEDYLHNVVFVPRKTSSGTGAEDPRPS
Sequence (P06213 763-1382 limits assumed): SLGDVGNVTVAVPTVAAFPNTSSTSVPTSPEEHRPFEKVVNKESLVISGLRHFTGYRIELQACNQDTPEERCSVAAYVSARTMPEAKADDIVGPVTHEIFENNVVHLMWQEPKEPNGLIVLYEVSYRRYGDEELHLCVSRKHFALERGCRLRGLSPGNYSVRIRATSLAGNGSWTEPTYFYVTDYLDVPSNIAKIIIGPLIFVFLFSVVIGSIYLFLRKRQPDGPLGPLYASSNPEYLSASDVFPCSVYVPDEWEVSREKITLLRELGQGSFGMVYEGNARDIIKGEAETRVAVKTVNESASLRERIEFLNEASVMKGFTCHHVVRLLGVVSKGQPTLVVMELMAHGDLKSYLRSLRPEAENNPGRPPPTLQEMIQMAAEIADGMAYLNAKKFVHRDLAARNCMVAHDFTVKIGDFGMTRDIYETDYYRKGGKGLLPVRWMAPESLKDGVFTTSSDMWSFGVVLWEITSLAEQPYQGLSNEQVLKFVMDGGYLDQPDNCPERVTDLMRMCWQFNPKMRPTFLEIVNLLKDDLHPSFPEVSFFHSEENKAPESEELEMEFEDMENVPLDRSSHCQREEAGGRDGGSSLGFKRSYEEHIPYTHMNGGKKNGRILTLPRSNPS
PROPERTY: IC50

Query for Insulin receptor (Homo sapiens): what IC50 does the record show for Nc1nccc(-c2cc3c([nH]2)[C@@H](CCF)CNC3=O)n1 ?
> 4 µM

* * *

Target: Mitogen-activated protein kinase 11 (Homo sapiens, UniProt Q15759)
Sequence (Q15759 whole entry): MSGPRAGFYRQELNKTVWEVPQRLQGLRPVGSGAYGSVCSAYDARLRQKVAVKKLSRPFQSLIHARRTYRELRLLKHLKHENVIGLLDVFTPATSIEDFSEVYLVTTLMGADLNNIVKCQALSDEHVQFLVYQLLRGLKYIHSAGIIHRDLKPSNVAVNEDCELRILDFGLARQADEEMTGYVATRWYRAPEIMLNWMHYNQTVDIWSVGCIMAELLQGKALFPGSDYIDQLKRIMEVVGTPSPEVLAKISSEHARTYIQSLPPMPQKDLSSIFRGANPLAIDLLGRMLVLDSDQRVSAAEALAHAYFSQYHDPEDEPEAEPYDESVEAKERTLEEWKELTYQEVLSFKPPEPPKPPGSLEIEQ
Assay: Inhibition of P38beta
PROPERTY: IC50

Tell me the measured IC50 of Nc1nccc(-c2cc3c([nH]2)[C@@H](CCF)CNC3=O)n1 , please.
> 4 µM

* * *

Test: AUC (0 to infinity) in Beagle dog at 5 mg/kg, iv administered as single dose
Type: ADME, organism-based, Canis lupus familiaris
Parameters: time infinity, dose 5 mg/kg, route intravenous
Conditions: plasma
PROPERTY: AUC(0-inf) (µM·h)
Give bare numbers, in µM·h.

Quick one: AUC(0-inf) for Nc1nccc(-c2cc3c([nH]2)[C@@H](CCF)CNC3=O)n1 ?
6.3

* * *

Target: cAMP-dependent protein kinase catalytic subunit alpha (Homo sapiens, UniProt P17612)
Assay: Inhibition of PKAalpha
PROPERTY: IC50

What IC50 appears in the records for this molecule with cAMP-dependent protein kinase catalytic subunit alpha (Homo sapiens, UniProt P17612)? Nc1nccc(-c2cc3c([nH]2)[C@@H](CCF)CNC3=O)n1
> 4 µM

* * *

I'd appreciate it if you could supply Tmax values for the items below.
Experiment: Tmax in nu/nu mouse at 10 mg/kg, po administered as single dose
Type: ADME, organism-based
Parameters: dose 10 mg/kg, route oral
Conditions: in vivo
Answers are plain numbers, in min.

Observe how each entry below is paired with its result.
molecule="Nc1nccc(-c2cc3c([nH]2)C(CCC(F)(F)F)CNC3=O)n1 (stereo in doubt; 93-2)" value=19.8
molecule=Nc1nccc(-c2cc3c([nH]2)[C@@H](CCF)CNC3=O)n1 value=30

Now, please, on to the next molecule.
So what's the measured Tmax for this one? CCC1CNC(=O)c2cc(-c3ccnc(N)n3)[nH]c21 (stereo in doubt; 86-1)
20.4

* * *

Experiment: Clearance in Wistar rat at 10 mg/kg, iv administered as single dose
Assay type: ADME, organism-based
Parameters: dose 10 mg/kg, route intravenous
Details: in vivo
PROPERTY: clearance (mL/min/kg)
Answers are plain numbers, in mL/min/kg.

Reported clearance for Nc1nccc(-c2cc3c([nH]2)[C@@H](CCF)CNC3=O)n1 : what is it?
30

* * *

Assay: AUC (0 to infinity) in Beagle dog at 10 mg/kg, po administered as single dose
Format: ADME, organism-based, Canis lupus familiaris
Design: time infinity, dose 10 mg/kg, route oral
Conditions: plasma
PROPERTY: AUC(0-inf) (µM·h)
Give bare numbers, in µM·h.

So what's the measured AUC(0-inf) for this one? Nc1nccc(-c2cc3c([nH]2)[C@@H](CCF)CNC3=O)n1
6.4

* * *

Assay: Volume of distribution at steady state in Beagle dog at 5 mg/kg, iv administered as single dose
Format: ADME, organism-based, Canis lupus familiaris
Parameters: dose 5 mg/kg, route intravenous
Settings: in vivo, read-out: Vdss
PROPERTY: Vd (L/kg)
Give bare numbers, in L/kg.

Which Vd value belongs to Nc1nccc(-c2cc3c([nH]2)[C@@H](CCF)CNC3=O)n1 ?
2.1

* * *

Assay: Clearance in nu/nu mouse at 10 mg/kg, iv administered as single dose
Format: ADME, organism-based
Design: dose 10 mg/kg, route intravenous
Conditions: in vivo
PROPERTY: clearance (mL/min/kg)
Answers are plain numbers, in mL/min/kg.

Observe how each entry below is paired with its result.
molecule="Nc1nccc(-c2cc3c([nH]2)C(CCC(F)(F)F)CNC3=O)n1 (stereo in doubt; 93-2)" property=clearance value=88.3
molecule=Nc1nccc(-c2cc3c([nH]2)[C@@H](CCF)CNC3=O)n1 property=clearance value=61.7

# input for lookup
Value lookup for clearance; key = CCC1CNC(=O)c2cc(-c3ccnc(N)n3)[nH]c21 (stereo in doubt; 86-1)
125

* * *

Experiment: Half life in Wistar rat at 10 mg/kg, iv administered as single dose
Assay type: ADME, organism-based
Design: dose 10 mg/kg, route intravenous
Conditions: in vivo
PROPERTY: half-life (h)
One number for each entry, in h.

// query half-life value for entry Nc1nccc(-c2cc3c([nH]2)[C@@H](CCF)CNC3=O)n1
1.3

* * *

Target: Serine/threonine-protein kinase PLK1 (Homo sapiens)
Sequence (P53350 whole entry): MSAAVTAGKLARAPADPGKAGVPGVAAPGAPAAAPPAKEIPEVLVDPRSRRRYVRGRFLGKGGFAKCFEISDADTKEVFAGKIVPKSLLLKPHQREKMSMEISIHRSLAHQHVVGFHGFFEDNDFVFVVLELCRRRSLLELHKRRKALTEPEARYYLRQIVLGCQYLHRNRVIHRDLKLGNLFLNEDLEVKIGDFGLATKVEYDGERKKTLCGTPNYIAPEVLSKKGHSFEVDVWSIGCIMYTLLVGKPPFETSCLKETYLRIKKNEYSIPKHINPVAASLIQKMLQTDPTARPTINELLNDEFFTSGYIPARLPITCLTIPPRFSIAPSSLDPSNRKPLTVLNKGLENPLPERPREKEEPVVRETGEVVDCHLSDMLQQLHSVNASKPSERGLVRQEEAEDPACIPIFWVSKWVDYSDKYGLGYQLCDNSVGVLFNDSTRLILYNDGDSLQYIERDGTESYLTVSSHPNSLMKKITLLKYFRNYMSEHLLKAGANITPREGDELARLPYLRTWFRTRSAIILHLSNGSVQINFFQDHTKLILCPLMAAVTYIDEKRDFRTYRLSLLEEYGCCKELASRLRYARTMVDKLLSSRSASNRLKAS
PROPERTY: IC50

Form entry - test system: Serine/threonine-protein kinase PLK1 (Homo sapiens); read-out: IC50; compound: Nc1nccc(-c2cc3c([nH]2)[C@@H](CCF)CNC3=O)n1
574 nM

* * *

Test: Inhibition of Cdk1b
PROPERTY: pIC50
Give bare numbers, as −log10 of the molar value.

Name the recorded pIC50 for Nc1nccc(-c2cc3c([nH]2)[C@@H](CCF)CNC3=O)n1 .
7.52

* * *

Molecular target: Serine/threonine-protein kinase Nek6 (Homo sapiens)
Sequence (Q9HC98 whole entry): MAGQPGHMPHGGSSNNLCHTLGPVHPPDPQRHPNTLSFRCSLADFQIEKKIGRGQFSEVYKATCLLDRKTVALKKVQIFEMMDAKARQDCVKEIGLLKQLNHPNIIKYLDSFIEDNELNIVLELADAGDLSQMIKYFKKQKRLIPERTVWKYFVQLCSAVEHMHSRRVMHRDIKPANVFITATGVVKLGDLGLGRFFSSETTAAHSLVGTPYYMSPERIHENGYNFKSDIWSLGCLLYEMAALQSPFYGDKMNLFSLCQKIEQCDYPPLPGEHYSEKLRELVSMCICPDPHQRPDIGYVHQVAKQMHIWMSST
PROPERTY: IC50

Looking for the measured IC50 of Nc1nccc(-c2cc3c([nH]2)[C@@H](CCF)CNC3=O)n1 , can you help?
> 4 µM

* * *

Would you kindly list IC50 for each of these compounds?
Test: Antiproliferative activity against human SW403 cells after 72 hrs by luciferase based assay
Type: functional, cell-based
Details: SW-403, 72 h
Numbers only, in nM.

smiles_notation=Nc1nccc(-c2cc3c([nH]2)[C@@H](CCF)CNC3=O)n1 property=IC50 value=600

# ---- query compound ----
What value of measured IC50 is listed for O=C1NCCc2[nH]c(-c3ccncc3)cc21 ?
1000

* * *

Experiment: Solubility in pH 7.0 buffer
PROPERTY: solubility (µM)
One number for each entry, in µM.

Entry Nc1nccc(-c2cc3c([nH]2)C(CCC(F)(F)F)CNC3=O)n1 (stereo in doubt; 93-2) : reported solubility = ?
195

* * *

Test: AUC (0 to infinity) in nu/nu mouse at 10 mg/kg, iv administered as single dose
Type: ADME, organism-based
Set-up: dose 10 mg/kg, route intravenous, time infinity
Conditions: plasma
PROPERTY: AUC(0-inf)
Include the unit after the number when you answer.

A selection of reference data follows.
compound="Nc1nccc(-c2cc3c([nH]2)C(CCC(F)(F)F)CNC3=O)n1 (stereo in doubt; 93-2)" value="5.3 µM·h"
compound="CCC1CNC(=O)c2cc(-c3ccnc(N)n3)[nH]c21 (stereo in doubt; 86-1)" value="4.9 µM·h"

Turning to the following compound.
What value of measured AUC(0-inf) is listed for Nc1nccc(-c2cc3c([nH]2)[C@@H](CCF)CNC3=O)n1 ?
9.5 µM·h

* * *

Target: Inhibitor of nuclear factor kappa-B kinase subunit epsilon (Homo sapiens)
Sequence (Q14164 whole entry): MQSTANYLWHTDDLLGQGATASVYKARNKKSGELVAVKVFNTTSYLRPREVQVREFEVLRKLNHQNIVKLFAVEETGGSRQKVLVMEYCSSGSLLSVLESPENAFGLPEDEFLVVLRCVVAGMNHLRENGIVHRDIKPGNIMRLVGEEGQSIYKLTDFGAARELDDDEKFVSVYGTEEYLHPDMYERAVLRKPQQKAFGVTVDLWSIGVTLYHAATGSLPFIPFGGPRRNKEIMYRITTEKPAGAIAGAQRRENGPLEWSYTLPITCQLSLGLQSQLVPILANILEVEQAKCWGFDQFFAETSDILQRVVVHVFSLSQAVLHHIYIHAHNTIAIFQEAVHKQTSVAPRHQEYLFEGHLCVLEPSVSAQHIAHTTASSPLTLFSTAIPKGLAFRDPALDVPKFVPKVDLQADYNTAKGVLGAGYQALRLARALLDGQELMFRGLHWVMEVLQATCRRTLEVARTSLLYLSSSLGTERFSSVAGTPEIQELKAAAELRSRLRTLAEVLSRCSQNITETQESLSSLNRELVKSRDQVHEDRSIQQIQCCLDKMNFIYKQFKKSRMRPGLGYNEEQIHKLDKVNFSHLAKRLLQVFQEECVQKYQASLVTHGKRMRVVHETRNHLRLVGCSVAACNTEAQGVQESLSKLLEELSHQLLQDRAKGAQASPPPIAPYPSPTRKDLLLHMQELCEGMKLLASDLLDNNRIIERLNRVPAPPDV
Assay: Inhibition of IKKi
PROPERTY: IC50

Please give the measured IC50 for this compound: Nc1nccc(-c2cc3c([nH]2)[C@@H](CCF)CNC3=O)n1
> 4 µM
